- Tested on: MDA-MB-468 breast
- runDescription: NCI-60 one-dose screen, 48 h
- experimentalParameters: 10 µM unless noted
- Method: Growth inhibition of the MDA-MB-468 human Breast tumor cell line is measured as a screen for anti-cancer activity. Cells are grown in 96 well plates and exposed to the test compound for 48 hours. Compounds are tested at a single concentration, which is 10^-5 M for most compounds. The reported endpoint is percent growth (GI% or GIPRCNT), where numbers from 0 - 100% represent growth inhibition, and numbers from -100% - 0 represent cell death. […]
About 83,000 compounds went through this panel and 20% of them were active in at least one assay; those are over-represented in the sample as a whole. Calls of active or inactive are those of the source. The calls were made as follows: active = growth percent below 10; inactive = the rest.
Pick one: YES (active), NO (inactive)

compound | testedTarget | assignedClass
CC(=O)C(CO)C(=O)Nc1ccccc1 (configuration not stated) | MDA-MB-468 breast | NO
O=C1/C(=C\c2ccc(F)cc2)CN(C(=O)c2ccccc2F)C/C1=C\c1ccc(F)cc1 | MDA-MB-468 breast | YES
Cc1nc(-c2ccc(Cl)cc2)ccc1NC(=O)Nc1cccc(C(F)(F)F)c1 | MDA-MB-468 breast | NO
CN[C@]12CC3(C=CC(=O)C=C3)O[C@@]1(Cc1ccc(OC)cc1)N(C)C(=O)N2 | MDA-MB-468 breast | NO
COc1ccc(C2C(c3nn[nH]n3)=C(N)Oc3c2ccc2ccccc32)cc1 (configuration not stated) | MDA-MB-468 breast | NO
FC(F)(F)c1ccc(Cn2cc(CSc3nc4ccccc4s3)nn2)cc1 | MDA-MB-468 breast | NO
O=C1CC(c2nc3ccccc3[nH]2)CN1C1CCCCC1 (configuration not stated) | MDA-MB-468 breast | NO
O=C(c1ccccc1)C(Br)C(Br)c1cccc([N+](=O)[O-])c1 (configuration not stated) | MDA-MB-468 breast | YES

Each compound tested received a call. Report the one for `COC(=O)/C=C1\Sc2cc(F)ccc2NC1=O` .
NO

Each compound tested received a call. Report the one for `CN(C)CCC=C1c2ccccc2C(C)(C)c2ccccc21` .
NO

Each compound tested received a call. Report the one for `CNC(=O)c1ccccc1Nc1nc(Nc2ccc3c(c2OC)CCC[C@H](N2CCN(CCO)CC2)C3)ncc1Cl` .
YES

Each compound tested received a call. Report the one for `COc1ccc(/C=C2\SC(=O)N(CN3CCN(c4cc5c(cc4F)c(=O)c(C(=O)O)cn5C4CC4)CC3)C2=O)cc1` .
NO
